Experiment: qHTS Screen of the MIPE 4.0 Collection Against Ewings Sarcoma (EW8) (AID 1259255); note: nearly all actives have a fitted effect of over 35% in size;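 for viability: 100% = DMSO-treated cells and 0% = medium-only wells without cells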
Details: EW8 Ewing sarcoma viability, CellTiter-Glo, 48 h; series mostly up to 45.8 µM
Procedure: There is a large unmet medical need for treatments for Ewing sarcoma, a pediatric sarcoma. […] Using the NCATS developed oncology compound library called the Mechanism of Interrogation Plate (MIPE), four Ewing sarcoma cell lines were evaluated (TC32, TC71, RDES, EW8). Compounds, in a 12-point titration series, were incubated with cells for 48 hours and the read out was cell viability (CellTiter-Glo from Promega). […]
Results filed as inconclusive are left out. The source made the active and inactive calls. Calls come from the whole dose curve; as a rule, active = well fitted inhibition curve with a large enough effect; inconclusive = small, poorly fitted or top-dose-only effect; inactive = no such curve, though single readings can be large or run the other way.
Labels: TRUE (active), FALSE (inactive)

c1ccc2c(-c3cnn4cc(-c5ccc(N6CCNCC6)cc5)cnc34)ccnc2c1
FALSE
CCc1ccc(OCc2ccccc2C(=O)Nc2ccc3nc(C)cc(N)c3c2)cc1
TRUE
CC=CC(=O)N(CC)c1ccccc1C
FALSE
Clc1ccc(C(c2ccc(Cl)cc2)n2cc[n+](CC(OCc3ccc(Cl)cc3Cl)c3ccc(Cl)cc3Cl)c2)cc1 (stereo not given)
TRUE
NC1CCC(Nc2nc(Nc3ccc(C(=O)N4CCCCC4)cc3)c3ncn(-c4cccc(F)c4)c3n2)CC1 (stereo not given)
FALSE
O=c1c(-c2ccc(O)cc2)coc2cc(O[C@@H]3O[C@H](CO)[C@H](O)[C@H](O)[C@H]3O)ccc12
FALSE
Cc1ccccc1C(C(=O)NC1CCCCC1)N(C(=O)Cn1ccnc1C)c1cccc(F)c1 (stereo not given)
FALSE
CCOC1OC(=O)C[C@H]1NC(=O)[C@@H]1CCCN1C(=O)[C@@H](NC(=O)c1ccc(N)c(Cl)c1)C(C)(C)C (stereo not given in full)
FALSE
CC1(C)Cc2c(sc(NC(=S)NC(=O)c3ccccc3)c2C(=O)O)CO1
FALSE
O=c1c(-c2ccc(O)cc2)coc2cc(O)ccc12
FALSE

###

Tested on: CRL-7250
Experiment: Cytotoxic Profiling of Annotated Libraries Using Quantitative High-Throughput Screening (AID 1296008); note: % is set by controls: 0 for no effect and ±100 for the full control effect; nearly all actives have a fitted effect of over 60% in size
Conditions: Five cell lines viability, CellTiter-Glo ATP luminescence, 48-72 h; hits give low values
Inconclusive results are not listed.
Below, each entry is listed alongside its reported max response.
measurement.kind: max response (%)

COc1ccc(-c2coc3cc(O)cc(O)c3c2=O)cc1
1.69
CC(C)(C)OC(=O)N[C@H]1CCCCCC=C[C@@H]2C[C@@]2(C(=O)NS(=O)(=O)C2CC2)NC(=O)[C@@H]2C[C@@H](OC(=O)N3Cc4cccc(F)c4C3)CN2C1=O
-21.2
CN(C)c1cc(NC(=O)CNC(C)(C)C)c(O)c2c1C[C@@H]1C[C@H]3[C@H](N(C)C)C(=O)C(C(N)=O)=C(O)[C@@]3(O)C(=O)C1=C2O
-28.8
CC/C(=C(\c1ccccc1)c1ccc(OCCN(C)C)cc1)c1ccccc1
-3.24
CC(=O)O[C@]1(C(C)=O)CC[C@@H]2[C@@H]3C[C@H](C)C4=CC(=O)CC[C@]4(C)[C@H]3CC[C@@]21C
2.81
O=C(O)C=Cc1ccc(O)c(O)c1
-10.7
OC[C@H]1O[C@@H](n2cnc3c2NC=NC[C@@H]3O)C[C@H]1O
2.48
COC1CCC(N(C(=O)C2CCC(C)CC2)c2cc(C3=CCCCC3)sc2C(=O)O)CC1 (stereo not given)
-4.75
N#Cc1ccc(NC(=O)Nc2ccccc2Br)c2n[nH]nc12
-24.9
O=C1c2c(O)cc(O)cc2O[C@H](c2cc(O)c(O)c(O)c2)[C@H]1O
1.37
COc1ccc(Cc2ccc(NC(N)=O)cc2)cc1-c1cccc(Cl)c1
2.51
CCNc1cc(NC2CCC(O)CC2)nc(Nc2ccc3c(ccn3Cc3ccccc3)c2)n1 (stereo not given)
1.87
O=C(O)[C@H]1O[C@H](Oc2cc3oc(-c4ccccc4)cc(=O)c3c(O)c2O)[C@H](O)[C@@H](O)[C@H]1O
-6.52
CC(=O)OC1C(C)OC(Oc2c(-c3ccc(O)cc3)oc3cc(O)cc(O)c3c2=O)C(O)C1OC(C)=O (stereo not given)
-21.1
CC1(C)CCC[C@@]2(C)[C@@H]1CC[C@@]1(C)OC(=O)C[C@H]21
1.92
C=C1C(=O)OC2C=C(C)CCC=C(C)CCC12 (stereo not given)
0.517
Clc1ccc(Cn2c(CN3CCCC3)nc3ccccc32)cc1
-0.466
NC(=O)c1ccc2nc(-c3ccc(Oc4ccc(Cl)cc4)cc3)[nH]c2c1
-25.5
CCOC(CN1C(=O)[C@](CC(=O)Nc2ccc(C)cc2)(NC(=O)Nc2ccc(C)cc2)c2ccccc21)OCC
2.73
CC#CCn1c(N2CCC[C@@H](N)C2)nc2c1c(=O)n(Cc1nc(C)c3ccccc3n1)c(=O)n2C
0.558
